Entries annotated with measured pest or weed control at 17.5 g/ha
- System: Direct Seeded Rice and weed species
- Protocol text: Postemergence herbicidal activity in direct seeded rice, visual rating after 20-22 days and probit GR20/GR50/GR80/GR90 (Table 14)
- Type: in vivo
- Study conditions: post-emergence, 504 h; SEBEX (hemp sesbania, Sesbania exaltata); 17.5 g ai/ha; postemergence; read-out: Visual Growth Reduction (%) 21 Days After Application SEBEX
Reported endpoint: pest or weed control at 17.5 g/ha

Smiles structure: COC(=O)c1nc(-c2ccc3c(c2F)OC(F)(F)O3)cc(N)c1Cl
Reported endpoint: pest or weed control at 17.5 g/ha
Result: 75 to 84%
--
Smiles structure: COc1c(C(=O)O)nc(-c2ccc3c(c2)OC(F)(F)O3)c(F)c1N
Reported endpoint: pest or weed control at 17.5 g/ha
Result: 0 to 29%
--
Smiles structure: Nc1cc(-c2ccc3c(c2F)OC(F)(F)O3)nc(C(=O)O)c1Cl
Reported endpoint: pest or weed control at 17.5 g/ha
Result: 95 to 100%
--
Smiles structure: Nc1cc(-c2cc3c(cc2F)OC(F)(F)O3)nc(C(=O)O)c1Cl
Reported endpoint: pest or weed control at 17.5 g/ha
Result: 95 to 100%
--
Smiles structure: Nc1c(F)c(-c2ccc3c(c2F)OC(F)(F)O3)nc(C(=O)O)c1Cl
Reported endpoint: pest or weed control at 17.5 g/ha
Result: 95 to 100%
--
Smiles structure: COC(=O)c1nc(-c2ccc3c(c2F)OC(F)(F)O3)c(F)c(N)c1Cl
Reported endpoint: pest or weed control at 17.5 g/ha
Result: 95 to 100%
--
Smiles structure: COc1c(N)nc(-c2ccc3c(c2F)OC(F)(F)O3)nc1C(=O)O
Reported endpoint: pest or weed control at 17.5 g/ha
Result: 60 to 74%
